- measured.on: SIRT1 (Homo sapiens, UniProt Q96EB6)
- Sequence (Q96EB6 whole entry): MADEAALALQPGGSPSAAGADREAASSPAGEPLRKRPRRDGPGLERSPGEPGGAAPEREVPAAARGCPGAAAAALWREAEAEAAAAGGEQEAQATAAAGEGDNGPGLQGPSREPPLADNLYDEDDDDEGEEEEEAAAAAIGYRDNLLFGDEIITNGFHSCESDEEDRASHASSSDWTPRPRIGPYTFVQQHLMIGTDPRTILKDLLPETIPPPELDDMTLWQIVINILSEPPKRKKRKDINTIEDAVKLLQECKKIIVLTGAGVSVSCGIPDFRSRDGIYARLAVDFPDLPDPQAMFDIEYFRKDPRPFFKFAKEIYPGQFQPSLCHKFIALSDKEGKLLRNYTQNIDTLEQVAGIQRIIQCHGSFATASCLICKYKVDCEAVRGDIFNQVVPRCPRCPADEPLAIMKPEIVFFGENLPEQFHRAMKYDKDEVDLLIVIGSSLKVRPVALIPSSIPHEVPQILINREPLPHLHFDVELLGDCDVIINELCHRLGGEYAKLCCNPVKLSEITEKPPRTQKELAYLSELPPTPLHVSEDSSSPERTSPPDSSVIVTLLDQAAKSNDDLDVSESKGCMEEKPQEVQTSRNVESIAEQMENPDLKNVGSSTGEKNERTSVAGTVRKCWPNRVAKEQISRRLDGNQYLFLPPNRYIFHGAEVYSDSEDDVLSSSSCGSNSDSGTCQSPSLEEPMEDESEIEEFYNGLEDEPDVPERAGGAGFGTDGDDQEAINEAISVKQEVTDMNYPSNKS
- protocol.text: TAMRA based mass spectrometry assay of SIRT1 activity
- Assay type: biochemical
- details: concentration of test compound giving 150% activation of SIRT1; TAMRA peptide substrate
quantity: TAMRA EC1.5 (μM)

compound: O=C(Nc1ccccn1)c1cnc2ccc(-c3cccc(F)c3Cl)nn12
TAMRA EC1.5 (μM): B (EC1.5 1-25 μM)
//
compound: O=C(Nc1ccnc(N2CCC2)c1)c1cnc2ccc(-c3cccc(F)c3Cl)nn12
TAMRA EC1.5 (μM): A (EC1.5<1 μM)
//
compound: O=C(Nc1ncco1)c1cnc2ccc(-c3ccccc3C(F)(F)F)nn12
TAMRA EC1.5 (μM): B (EC1.5 1-25 μM)
//
compound: CS(=O)(=O)c1ccccc1-c1ccc2ncc(C(=O)Nc3cccc(N4CCOCC4)n3)n2n1
TAMRA EC1.5 (μM): B (EC1.5 1-25 μM)
//
compound: O=C(Nc1ccnc(OCC(O)CO)n1)c1cnc2ccc(-c3ccccc3C(F)(F)F)nn12 (centres unmarked)
TAMRA EC1.5 (μM): A (EC1.5<1 μM)

Which TAMRA EC1.5 (μM) is reported for this compound? O=C(Nc1cnc2ccc(-c3ccccc3C(F)(F)F)nn12)c1cccc(OCC(O)CO)n1 (centres unmarked)
A (EC1.5<1 μM)

If you can, please state the reported TAMRA EC1.5 (μM) value of "O=C(Nc1ccccn1)c1cnc2ccc(-c3cccc(N4CCOCC4)c3)nn12" .
B (EC1.5 1-25 μM)
